Tested on: OVCAR-4 ovarian
Assay: NCI-60 one-dose screen, 48 h
Details: 10 µM unless noted
The panel holds about 83,000 compounds, 20% with a hit somewhere; the sample as a whole holds those more often. The source made the active and inactive calls. Rule for the calls: active = growth percent below 10; inactive = the rest.
Outcomes: active, inactive

- COMPOUND: "Cn1ccnc1C(=O)/C=C/c1ccc(CC(=O)Nc2ccc(S(F)(F)(F)(F)F)cc2)cc1"
  QUALITATIVE LABEL: "inactive"
- COMPOUND: "FC(F)(F)c1ccc(CNc2ccc(Cc3c[nH]c4ncc(Cl)cc34)cn2)cn1"
  QUALITATIVE LABEL: "inactive"
- COMPOUND: "COc1ccc(-c2nocc2-c2cc(OC)c(OC)c(OC)c2)cc1"
  QUALITATIVE LABEL: "inactive"
- COMPOUND: "O=C1C=CC2(NN=C(c3ccccc3)N2c2ccccc2)c2cccc(O)c21 (stereo not given)"
  QUALITATIVE LABEL: "inactive"
- COMPOUND: "CN(N)c1nc2sc3c(c2c(=O)[nH]1)CCCC3"
  QUALITATIVE LABEL: "inactive"
- COMPOUND: "CN1CCN(CCCOc2cccc3nc(Nc4ccc(Cl)c(C(F)(F)F)c4)ccc23)CC1"
  QUALITATIVE LABEL: "inactive"
- COMPOUND: "CC(=O)Nc1cccc(-n2c(=O)n(C3CC3)c(=O)c3c(Nc4ccc(I)cc4F)n(C)c(=O)c(C)c32)c1"
  QUALITATIVE LABEL: "inactive"
- COMPOUND: "O=[N+]([O-])c1cc(Br)cc2c1[nH]c1ccc(Br)cc12"
  QUALITATIVE LABEL: "active"
- COMPOUND: "COc1ccc2nc3cc(Cl)ccc3c(Nc3ccc(N(C)C)cc3)c2c1"
  QUALITATIVE LABEL: "inactive"
- COMPOUND: "CC#CC(=O)N1CCC[C@H]1c1nc(-c2ccc(C(=O)Nc3ccccn3)cc2)c2c(N)nccn12"
  QUALITATIVE LABEL: "inactive"
- COMPOUND: "Cc1ccc(-c2nc3ccc(Cl)cn3c2NC2CCCCC2)o1"
  QUALITATIVE LABEL: "inactive"
- COMPOUND: "COc1ccc(Br)cc1NC(=O)Nc1cccc2c1ccn2Cc1ccnc(N)c1"
  QUALITATIVE LABEL: "inactive"
- COMPOUND: "Clc1ccc(Nc2nccc(Nc3ccc4[nH]ncc4c3)n2)cc1"
  QUALITATIVE LABEL: "inactive"
- COMPOUND: "CO[C@H]1C[C@@H]2CC[C@@H](C)[C@@](O)(O2)C(=O)C(=O)N2CCCC[C@H]2C(=O)O[C@H]([C@H](C)C[C@@H]2CC[C@@H](O)[C@H](OC)C2)CC(=O)[C@H](C)/C=C(\\C)[C@@H](O)[C@@H](OC)C(=O)[C@H](C)C[C@H](C)\\C=C/C=C/C=C/1C"
  QUALITATIVE LABEL: "inactive"
- COMPOUND: "Cc1nn(-c2nc3ccccc3[nH]2)c2c1C(c1ccc(OCc3ccc(F)cc3)cc1)CC(=O)N2 (stereo not given)"
  QUALITATIVE LABEL: "inactive"
- COMPOUND: "Cc1nc(-c2cn3c(n2)-c2ccc(-c4cnn(C(C)(C)C(N)=O)c4)cc2OCC3)n(C(C)C)n1"
  QUALITATIVE LABEL: "inactive"
- COMPOUND: "COc1cc2c(cc1OCCCCN1CCN(CC(=O)Nc3ccc(Cl)cc3C(=O)c3ccccc3Cl)CC1)N=CC1CCCN1C2=O (stereo not given)"
  QUALITATIVE LABEL: "active"
- COMPOUND: "Cc1c(CN2CCN(C(=O)[C@H](C)O)CC2)sc2c(N3CCOCC3)nc(-c3cnc(N)nc3)nc12"
  QUALITATIVE LABEL: "active"
- COMPOUND: "Cc1ccsc1C(NC(=O)c1ccccc1)c1cc(Cl)c2cccnc2c1O (stereo not given)"
  QUALITATIVE LABEL: "inactive"
- COMPOUND: "O=S1(=O)OC(c2ccc(O)c(Cl)c2)(c2ccc(O)c(Cl)c2)c2ccccc21"
  QUALITATIVE LABEL: "inactive"
- COMPOUND: "Nc1nc(=S)c2ncn(C3OC(COC(=O)c4ccc(Cl)cc4)C(OC(=O)c4ccc(Cl)cc4)C3OC(=O)c3ccc(Cl)cc3)c2[nH]1 (stereo not given)"
  QUALITATIVE LABEL: "inactive"
- COMPOUND: "Cc1nc(NC(=O)N2CCC[C@H]2C(N)=O)sc1-c1ccnc(C(C)(C)C(F)(F)F)c1"
  QUALITATIVE LABEL: "inactive"
- COMPOUND: "COC(=O)[C@@H](NC(=O)[C@@H](OC)[C@@H]1Cc2cc3cc(OC4CC(OC5CC(O)C(O)C(C)O5)C(O)C(C)O4)c(C)c(O)c3c(O)c2C(=O)[C@H]1OC1CC(OC2CC(OC3CC(C)(O)C(O)C(C)O3)C(O)C(C)O2)C(O)C(C)O1)C(C)C (stereo not given in full)"
  QUALITATIVE LABEL: "inactive"
- COMPOUND: "CC(C)C1CCC(C)C(C2(C#N)C(N)=NC(N)=C2C#N)C1=O (stereo not given)"
  QUALITATIVE LABEL: "inactive"
- COMPOUND: "Cc1ccccc1N1C(c2ccccc2)=NNC12C=CC(=O)C=C2Cl (stereo not given)"
  QUALITATIVE LABEL: "inactive"
- COMPOUND: "CCc1cnn2c(NCc3ccc[n+]([O-])c3)cc(N3CCCC[C@H]3CCO)nc12"
  QUALITATIVE LABEL: "active"
- COMPOUND: "CS(=O)(=O)N1CCc2c(-c3cnc(N)nc3)nc(N3CCOCC3)nc21"
  QUALITATIVE LABEL: "active"
- COMPOUND: "CCC1(/C=N/NC(N)=S)NC(=O)NC1=O (stereo not given)"
  QUALITATIVE LABEL: "inactive"
- COMPOUND: "C=CC(=O)N(C)[C@H]1C[C@H]2OC(C)(C1OC)n1c3ccccc3c3c4c(c5c6ccccc6n2c5c31)C(=O)NC4 (stereo not given in full)"
  QUALITATIVE LABEL: "inactive"
- COMPOUND: "CC1(O)CCC(Nc2cc(-c3ccc(C(F)(F)F)cc3)c(C#N)c3nc4ccccc4n23)CC1 (stereo not given)"
  QUALITATIVE LABEL: "inactive"
- COMPOUND: "CC(C)(C)c1nc(-c2cccc(NS(=O)(=O)c3c(F)cccc3F)c2F)c(-c2ccnc(N)n2)s1"
  QUALITATIVE LABEL: "inactive"
- COMPOUND: "O=C(Cn1ccc2ccccc21)Nc1ccc(-c2nc3ccccc3s2)cc1"
  QUALITATIVE LABEL: "inactive"
- COMPOUND: "Cc1csc(-c2nnc(Nc3ccc(Oc4ncccc4-c4ccnc(N)n4)cc3)c3ccccc23)c1"
  QUALITATIVE LABEL: "inactive"
- COMPOUND: "CC(=Nc1ccccc1)C1=C(O)C(Cc2ccc(O)cc2)NC1=O (stereo not given)"
  QUALITATIVE LABEL: "inactive"
- COMPOUND: "C=C1CC[C@@H]2[C@](C)(COC(C)=O)[C@H](OC(C)=O)CC[C@@]2(C)[C@@H]1C/C=C1/C(=O)OC[C@H]1OC(C)=O"
  QUALITATIVE LABEL: "inactive"

---

System: 786-0 renal
Assay: NCI-60 one-dose screen, 48 h (100 = growth as untreated, 0 = no growth, -100 = all killed)
Conditions: 10 µM unless noted
Compounds without any hit were thinned out: in the full panel of roughly 83,000, 20% have a hit.
Each entry below carries its reported growth.
OBSERVED PROPERTY: growth (%)

- COMPOUND: "CNC(=O)c1cc(Oc2ccc(NC(=O)Nc3cc(C(C)(C)C)nn3-c3ccc4ncccc4c3)c(F)c2)ccn1"
  UNIT SPEC: "%"
  QUANTITATIVE READOUT: -16.7
- COMPOUND: "O=[N+]([O-])c1cc(Br)cc2c1[nH]c1ccc(Br)cc12"
  UNIT SPEC: "%"
  QUANTITATIVE READOUT: 44.3
- COMPOUND: "COc1ccc(C2CC(=O)c3c(O)c(OC)c(OC)c(OC)c3O2)cc1O (centres undefined)"
  UNIT SPEC: "%"
  QUANTITATIVE READOUT: 49
- COMPOUND: "O=C(Cc1ccc(/C=C/C(=O)c2ncc[nH]2)cc1)Nc1ccc(S(F)(F)(F)(F)F)cc1"
  UNIT SPEC: "%"
  QUANTITATIVE READOUT: 88.5
- COMPOUND: "CCCCCC(=O)OCc1ccc(Cl)c(Cl)c1"
  UNIT SPEC: "%"
  QUANTITATIVE READOUT: 104
- COMPOUND: "CC(=O)C1=C(C)NC(SCc2nnc(-c3ccc(C)cc3)o2)=NC1c1ccc(F)cc1 (centres undefined)"
  UNIT SPEC: "%"
  QUANTITATIVE READOUT: 84.6
- COMPOUND: "CN1CCN(c2nc(C3=C(c4c[nH]c5ccccc45)C(=O)NC3=O)c3ccccc3n2)CC1"
  UNIT SPEC: "%"
  QUANTITATIVE READOUT: 92.8
- COMPOUND: "C/C(=C(/c1ccc(Cl)cc1)c1ccc(OCCN2CCCCCC2)cc1)c1ccccc1"
  UNIT SPEC: "%"
  QUANTITATIVE READOUT: 82
- COMPOUND: "CC(C)[C@@H]1CC[C@]2(CO2)[C@@H]2C(=O)OCC(C(=O)O)=C[C@H]21"
  UNIT SPEC: "%"
  QUANTITATIVE READOUT: 11.6
- COMPOUND: "CNS(=O)(=O)Nc1nccc(Cc2c(C)c3ccc(Oc4ncccn4)cc3oc2=O)c1F"
  UNIT SPEC: "%"
  QUANTITATIVE READOUT: 68
- COMPOUND: "Cc1oc2c(C(=O)N/N=C\\c3ccc(O)cc3O)c[nH]c2c1C"
  UNIT SPEC: "%"
  QUANTITATIVE READOUT: 5.43
- COMPOUND: "CCN(CC)CCN1C(=O)c2cccc3c(-c4ccc5c(c4)ncn5C4CCCCC4)ccc(c23)C1=O"
  UNIT SPEC: "%"
  QUANTITATIVE READOUT: -46.1
- COMPOUND: "CCc1nc2cc(/C=C/C(=O)NO)ccc2c(=O)n1CCc1ccc(F)cc1"
  UNIT SPEC: "%"
  QUANTITATIVE READOUT: -23
- COMPOUND: "CC(CCCC(=O)O)c1ccoc1 (centres undefined)"
  UNIT SPEC: "%"
  QUANTITATIVE READOUT: 98.8
- COMPOUND: "COc1cc2ncnc(Nc3ccc(O)cc3)c2cc1OC"
  UNIT SPEC: "%"
  QUANTITATIVE READOUT: 83.4
- COMPOUND: "CC/C(=C(\\c1ccc(OCCN2CCCCCCC2)cc1)c1ccc(OC(=O)C2CCCCC2)cc1)c1ccc(Cl)cc1"
  UNIT SPEC: "%"
  QUANTITATIVE READOUT: 104
- COMPOUND: "C=CC[n+]1c(/C=C/C=C2\\N(C)c3ccccc3C2(C)C)sc2ccc(OC)cc21"
  UNIT SPEC: "%"
  QUANTITATIVE READOUT: 26.8
- COMPOUND: "COc1cnc2c(c1)C(=O)c1c-2n(CCCNC2=NCCS2)c(=O)c2cc(Cl)ccc12"
  UNIT SPEC: "%"
  QUANTITATIVE READOUT: -96.7
- COMPOUND: "Cc1cc2c(-c3nc4ccccn4c3NC34CC5CC(CC(C5)C3)C4)c(O)c(O)cc2c(O)c1-c1c(C)cc2c(-c3nc4ccccn4c3NC34CC5CC(CC(C5)C3)C4)c(O)c(O)cc2c1O"
  UNIT SPEC: "%"
  QUANTITATIVE READOUT: -12
